Measured Residual rate (%) 120 min by item
- Assay name: Plasma stability, dog plasma
- Type: in vitro ADME
- Run parameters: dog plasma, 37° C., 120 min
// note: answer is a bare numeric in %

C=CC(=O)N1CCN(c2nc(=O)n(-c3c(C)ccnc3C(C)C)c3nc(-c4c(O)cccc4F)c(F)cc23)[C@@H](C)C1 [AMG 510, reference compound]: 91.92
C=CC(=O)N1C[C@H](C)N(c2nc(=O)n(-c3c(SC)ccnc3C(C)C)c3nc(-c4c(O)cccc4F)c(Cl)cc23)C[C@H]1C (atropisomer, axis not shown): 86.16
CC[C@H](C)C(=O)O[C@H]1C[C@@H](C)C=C2C=C[C@H](C)[C@H](CC[C@@H]3C[C@@H](O)CC(=O)O3)[C@H]21 [Lovastatin, reference compound]: 36.25

Task: # return recorded Residual rate (%) 120 min for input C=CC(=O)N1C[C@H](C)N(c2nc(=O)n(-c3c(SC)ccnc3C(C)C)c3nc(-c4c(N)ccc(Cl)c4F)c(Cl)cc23)C[C@H]1C (atropisomer, axis not shown)
Result: 92.49

====

- Assay name: Plasma stability, dog plasma
- Assay type: in vitro ADME
- Run parameters: dog plasma, 37° C., 15 min
Property: Residual rate (%) 15 min
// note: answer is a bare numeric in %

Task: # return recorded Residual rate (%) 15 min for input C=CC(=O)N1CCN(c2nc(=O)n(-c3c(C)ccnc3C(C)C)c3nc(-c4c(O)cccc4F)c(F)cc23)[C@@H](C)C1 [AMG 510, reference compound]
Result: 98.88

Task: # return recorded Residual rate (%) 15 min for input C=CC(=O)N1C[C@H](C)N(c2nc(=O)n(-c3c(SC)ccnc3C(C)C)c3nc(-c4c(N)ccc(Cl)c4F)c(Cl)cc23)C[C@H]1C (atropisomer, axis not shown) [Embodiment 13-1]
Result: 97.71

Task: # return recorded Residual rate (%) 15 min for input C=CC(=O)N1C[C@H](C)N(c2nc(=O)n(-c3c(SC)ccnc3C(C)C)c3nc(-c4c(O)cccc4F)c(Cl)cc23)C[C@H]1C (atropisomer, axis not shown) [Embodiment 14-1]
Result: 99.98

Task: # return recorded Residual rate (%) 15 min for input CC[C@H](C)C(=O)O[C@H]1C[C@@H](C)C=C2C=C[C@H](C)[C@H](CC[C@@H]3C[C@@H](O)CC(=O)O3)[C@H]21 [Lovastatin, reference compound]
Result: 95.25

====

- Assay name: Plasma stability, rat plasma
- Format: in vitro ADME
- Run parameters: rat, plasma
Property: half-life at 0.5 μM (h)
// note: answer is a bare numeric in h

Task: # return recorded half-life at 0.5 μM for input C=CC(=O)N1CCN(c2nc(=O)n(-c3c(C)ccnc3C(C)C)c3nc(-c4c(O)cccc4F)c(F)cc23)[C@@H](C)C1 [AMG 510, reference compound]
Result: 2.29

====

- Study system: CYP450 2D6 (Homo sapiens, UniProt P10635)
- Construct: from tissue; host or cells: human liver microsomes
- Sequence (P10635 whole entry): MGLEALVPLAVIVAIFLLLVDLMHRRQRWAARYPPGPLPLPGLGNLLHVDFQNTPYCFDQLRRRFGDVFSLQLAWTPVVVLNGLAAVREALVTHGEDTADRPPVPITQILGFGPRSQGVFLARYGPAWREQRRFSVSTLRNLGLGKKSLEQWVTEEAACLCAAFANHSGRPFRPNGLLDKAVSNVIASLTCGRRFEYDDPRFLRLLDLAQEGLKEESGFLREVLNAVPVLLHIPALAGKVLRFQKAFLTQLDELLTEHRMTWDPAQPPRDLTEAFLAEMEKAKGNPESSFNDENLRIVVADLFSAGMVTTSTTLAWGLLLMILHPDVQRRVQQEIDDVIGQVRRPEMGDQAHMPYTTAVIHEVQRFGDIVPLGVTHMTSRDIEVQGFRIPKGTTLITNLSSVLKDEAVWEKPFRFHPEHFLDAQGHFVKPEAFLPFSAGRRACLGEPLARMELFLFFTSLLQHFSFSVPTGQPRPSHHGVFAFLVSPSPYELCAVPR
- Assay name: CYP enzyme single point inhibition test, human liver microsomes, 2D6
- Format: in vitro ADME
- Run parameters: single point method
- Description: Using human liver microsomal incubation system, the inhibition of CYP450 enzyme subtypes by compounds was rapidly predicted by single point method. 2.5 mM NADPH: 100 mM phosphate buffer was added to 4.165 mg of NADPH (reduced nicotinamide adenine dinucleotide phosphate) to 2 mL. 0.25 mg/mL microsome: 4 mL of 100 mM phosphate buffer was added to 50 μL of 20 mg/mL microsome and mixed well. […]
Property: IC50
Report the figure along with its unit, number first.

Task: # return recorded IC50 for input C=CC(=O)N1C[C@H](C)N(c2nc(=O)n(-c3c(SC)ccnc3C(C)C)c3nc(-c4c(N)ccc(Cl)c4F)c(Cl)cc23)C[C@H]1C (atropisomer, axis not shown)
Result: 21.2 µM

====

- Study system: hERG potassium channel (Homo sapiens)
- Construct: expressed in transfected cells; host or cells: CHO-hERG cells
- Sequence (Q12809 whole entry): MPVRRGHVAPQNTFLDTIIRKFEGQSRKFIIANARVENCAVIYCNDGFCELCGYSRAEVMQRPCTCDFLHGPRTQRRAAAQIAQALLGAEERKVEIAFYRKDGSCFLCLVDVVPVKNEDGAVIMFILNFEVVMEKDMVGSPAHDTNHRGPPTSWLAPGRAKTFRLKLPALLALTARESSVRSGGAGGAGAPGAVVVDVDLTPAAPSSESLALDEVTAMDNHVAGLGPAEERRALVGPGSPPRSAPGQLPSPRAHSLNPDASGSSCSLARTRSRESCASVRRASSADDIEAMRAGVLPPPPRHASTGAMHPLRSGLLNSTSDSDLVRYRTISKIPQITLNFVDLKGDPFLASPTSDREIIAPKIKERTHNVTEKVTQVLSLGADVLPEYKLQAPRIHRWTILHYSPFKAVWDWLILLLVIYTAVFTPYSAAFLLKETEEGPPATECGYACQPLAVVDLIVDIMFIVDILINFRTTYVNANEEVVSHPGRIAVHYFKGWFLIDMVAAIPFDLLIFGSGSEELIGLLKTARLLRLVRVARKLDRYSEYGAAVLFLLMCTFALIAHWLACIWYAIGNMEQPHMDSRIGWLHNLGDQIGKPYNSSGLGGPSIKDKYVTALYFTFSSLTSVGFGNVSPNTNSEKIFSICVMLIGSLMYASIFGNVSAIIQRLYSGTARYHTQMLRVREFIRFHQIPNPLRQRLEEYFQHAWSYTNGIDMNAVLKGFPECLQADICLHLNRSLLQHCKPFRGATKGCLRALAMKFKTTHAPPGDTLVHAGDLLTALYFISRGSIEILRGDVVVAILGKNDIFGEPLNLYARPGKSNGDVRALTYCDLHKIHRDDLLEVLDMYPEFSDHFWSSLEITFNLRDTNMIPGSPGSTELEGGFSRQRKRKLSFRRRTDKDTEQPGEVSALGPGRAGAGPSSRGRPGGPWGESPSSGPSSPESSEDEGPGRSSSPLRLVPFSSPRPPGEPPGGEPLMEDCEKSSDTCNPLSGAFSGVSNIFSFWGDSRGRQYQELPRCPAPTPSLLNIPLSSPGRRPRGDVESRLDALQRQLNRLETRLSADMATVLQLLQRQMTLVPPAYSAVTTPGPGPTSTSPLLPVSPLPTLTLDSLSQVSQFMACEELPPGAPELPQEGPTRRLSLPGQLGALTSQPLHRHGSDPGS
- Assay name: hERG potassium channel inhibitory activity test (Qpatch, CHO-hERG cells)
- Format: cell-based
- Run parameters: highest test concentration 40 μM, read-out: hERG (μM), inhibition at multiple concentrations on hERG current
Property: IC50

C=CC(=O)N1C[C@H](C)N(c2nc(=O)n(-c3c(SC)ccnc3C(C)C)c3nc(-c4c(N)ccc(Cl)c4F)c(Cl)cc23)C[C@H]1C (atropisomer, axis not shown): > 30 µM

Attention now shifts to the item below.
Task: # return recorded IC50 for input C=CC(=O)N1C[C@H](C)N(c2nc(=O)n(-c3c(SC)ccnc3C(C)C)c3nc(-c4c(O)cccc4F)c(Cl)cc23)C[C@H]1C (atropisomer, axis not shown)
Result: > 30 µM

====

- Study system: CYP450 3A4 (Homo sapiens, UniProt P08684)
- Construct: from tissue; host or cells: human liver microsomes
- Sequence (P08684 whole entry): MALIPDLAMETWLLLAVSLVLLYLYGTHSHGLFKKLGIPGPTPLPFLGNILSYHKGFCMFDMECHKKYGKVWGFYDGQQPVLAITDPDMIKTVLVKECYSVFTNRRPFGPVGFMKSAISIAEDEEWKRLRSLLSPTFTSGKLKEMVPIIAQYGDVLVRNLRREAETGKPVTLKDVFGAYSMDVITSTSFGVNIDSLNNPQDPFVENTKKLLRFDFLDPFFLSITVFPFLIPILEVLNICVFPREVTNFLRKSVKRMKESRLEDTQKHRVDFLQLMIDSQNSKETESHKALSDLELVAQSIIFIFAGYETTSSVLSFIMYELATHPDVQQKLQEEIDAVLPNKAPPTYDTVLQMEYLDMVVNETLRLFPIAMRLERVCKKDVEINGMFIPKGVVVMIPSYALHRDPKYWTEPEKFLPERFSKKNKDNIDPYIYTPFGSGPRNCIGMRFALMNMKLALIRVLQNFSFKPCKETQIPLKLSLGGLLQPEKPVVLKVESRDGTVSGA
- Assay name: CYP enzyme single point inhibition test, human liver microsomes, 3A4 (3A4-M, 3A4-T)
- Format: in vitro ADME
- Run parameters: single point method, 3A4-T, read-out: IC50 (μM) 3A4-T
Property: IC50 (µM)
// note: answer is a bare numeric in µM

Task: # return recorded IC50 for input C=CC(=O)N1C[C@H](C)N(c2nc(=O)n(-c3c(SC)ccnc3C(C)C)c3nc(-c4c(N)ccc(Cl)c4F)c(Cl)cc23)C[C@H]1C (atropisomer, axis not shown)
Result: 9.1

====

- Assay name: Plasma protein binding rate test, human plasma
- Type: in vitro ADME
- Run parameters: 37° C.
Property: fraction unbound at 6 h, 5 μM
# respond with the number and nothing more

Task: # return recorded fraction unbound at 6 h, 5 μM for input C=CC(=O)N1C[C@H](C)N(c2nc(=O)n(-c3c(SC)ccnc3C(C)C)c3nc(-c4c(N)ccc(Cl)c4F)c(Cl)cc23)C[C@H]1C (atropisomer, axis not shown)
Result: 0.003

====

- Assay name: Plasma stability, human plasma
- Format: in vitro ADME
- Run parameters: human, 15 min, 0.5 μM
Property: Residual rate (%) 15 min
// note: answer is a bare numeric in %

CC(C)[N+](C)(CCOC(=O)C1c2ccccc2Oc2ccccc21)C(C)C [Propantheline, reference compound]: 79.98
C=CC(=O)N1C[C@H](C)N(c2nc(=O)n(-c3c(SC)ccnc3C(C)C)c3nc(-c4c(O)cccc4F)c(Cl)cc23)C[C@H]1C (atropisomer, axis not shown) [Embodiment 14-1]: 99.15
C=CC(=O)N1CCN(c2nc(=O)n(-c3c(C)ccnc3C(C)C)c3nc(-c4c(O)cccc4F)c(F)cc23)[C@@H](C)C1 [AMG 510, reference compound]: 93.77

Attention now shifts to the item below.
Task: # return recorded Residual rate (%) 15 min for input C=CC(=O)N1C[C@H](C)N(c2nc(=O)n(-c3c(SC)ccnc3C(C)C)c3nc(-c4c(N)ccc(Cl)c4F)c(Cl)cc23)C[C@H]1C (atropisomer, axis not shown) [Embodiment 13-1]
Result: 102.34

====

- Assay name: Plasma stability, rat plasma
- Assay type: in vitro ADME
- Run parameters: rat plasma, 37° C., 15 min
Measured Residual rate (%) 15 min by item
// note: answer is a bare numeric in %

Here is how some molecules turned out for Residual rate (%) 15 min.
C=CC(=O)N1CCN(c2nc(=O)n(-c3c(C)ccnc3C(C)C)c3nc(-c4c(O)cccc4F)c(F)cc23)[C@@H](C)C1 [AMG 510, reference compound]: 100.85
CC[C@H](C)C(=O)O[C@H]1C[C@@H](C)C=C2C=C[C@H](C)[C@H](CC[C@@H]3C[C@@H](O)CC(=O)O3)[C@H]21 [Lovastatin, reference compound]: 21.15
C=CC(=O)N1C[C@H](C)N(c2nc(=O)n(-c3c(SC)ccnc3C(C)C)c3nc(-c4c(N)ccc(Cl)c4F)c(Cl)cc23)C[C@H]1C (atropisomer, axis not shown) [Embodiment 13-1]: 95.57

Attention now shifts to the item below.
Task: # return recorded Residual rate (%) 15 min for input C=CC(=O)N1C[C@H](C)N(c2nc(=O)n(-c3c(SC)ccnc3C(C)C)c3nc(-c4c(O)cccc4F)c(Cl)cc23)C[C@H]1C (atropisomer, axis not shown) [Embodiment 14-1]
Result: 93.20

====

Measured Residual rate (%) 30 min by item
- Assay name: Plasma stability, rat plasma
- Assay type: in vitro ADME
- Run parameters: rat plasma, 37° C., 30 min
// note: answer is a bare numeric in %

Task: # return recorded Residual rate (%) 30 min for input C=CC(=O)N1C[C@H](C)N(c2nc(=O)n(-c3c(SC)ccnc3C(C)C)c3nc(-c4c(O)cccc4F)c(Cl)cc23)C[C@H]1C (atropisomer, axis not shown)
Result: 98.32

Task: # return recorded Residual rate (%) 30 min for input CC[C@H](C)C(=O)O[C@H]1C[C@@H](C)C=C2C=C[C@H](C)[C@H](CC[C@@H]3C[C@@H](O)CC(=O)O3)[C@H]21 [Lovastatin, reference compound]
Result: 1.77

Task: # return recorded Residual rate (%) 30 min for input C=CC(=O)N1CCN(c2nc(=O)n(-c3c(C)ccnc3C(C)C)c3nc(-c4c(O)cccc4F)c(F)cc23)[C@@H](C)C1 [AMG 510, reference compound]
Result: 93.03

Task: # return recorded Residual rate (%) 30 min for input C=CC(=O)N1C[C@H](C)N(c2nc(=O)n(-c3c(SC)ccnc3C(C)C)c3nc(-c4c(N)ccc(Cl)c4F)c(Cl)cc23)C[C@H]1C (atropisomer, axis not shown)
Result: 96.73
